From: paper PMC5953424

Molecular target: PME1 (Homo sapiens)
Sequence (Q9Y570 1-386): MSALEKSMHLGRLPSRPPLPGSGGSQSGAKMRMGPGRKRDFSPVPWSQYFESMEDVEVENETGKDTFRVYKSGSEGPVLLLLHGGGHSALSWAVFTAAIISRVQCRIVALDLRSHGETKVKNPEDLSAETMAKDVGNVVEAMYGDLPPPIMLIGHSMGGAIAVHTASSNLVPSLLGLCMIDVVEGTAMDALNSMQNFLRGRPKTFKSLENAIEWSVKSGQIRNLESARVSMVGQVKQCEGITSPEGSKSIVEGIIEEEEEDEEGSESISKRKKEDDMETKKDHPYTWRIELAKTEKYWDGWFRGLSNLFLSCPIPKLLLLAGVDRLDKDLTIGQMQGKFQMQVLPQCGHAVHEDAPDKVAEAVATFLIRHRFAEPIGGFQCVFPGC
measuredParameter: pIC50
To interpret pIC50, take it as minus log10 of a concentration measured in moles per litre.

So what's the measured pIC50 for this one? COC(=O)N1C(=O)[C@](c2ccccc2)(C2CCCC2)N1C(=O)OC [ABL127]
7.92
